system: tubulin; test: Inhibition of tubulin polymerization; assay type: biochemical; conditions: tubulin 10 μM; extent of assembly after 20 min at 30° C.; read-out: Inhibition of tubulin Polymerization IC50 (μM) ± SD
Recorded Metric: IC50 (µM)

| Compound | Recorded Metric | Readout Number |
| --- | --- | --- |
| COc1ccc(C(=O)c2cc(OC)cc(OC)c2)cc1 [Compound 16a, 3,4′,5-trimethoxybenzophenone] | IC50 | 2.6 |
| COc1ccc(/C=C\c2cc(OC)c(OC)c(OC)c2)cc1O [Compound 2a, combretastatin A-4, reference compound] | IC50 | 2 |
| COc1ccc(C=Cc2cc(OC)cc(OC)c2)cc1 | IC50 | 1.8 |
| COc1ccc(C(=O)c2cc(OC)c(OC)c(OC)c2)cc1O [Compound 2c, phenstatin, reference compound] | IC50 | 1.1 |
| COc1cc(C=Cc2ccc(O)cc2)cc(OC)c1 [Compound 14c, 3,5-dimethoxy-4′-hydroxy-stilbene] | IC50 | 29 |

* * *

system: SF-268; experiment: Cytotoxicity, CNS SF-268; type: cell-based, human; settings: Homo sapiens, SF-268, SF-268; read-out: CNS SF-268 GI50
Lab note: anything with GI50 below 5 µg/mL is marked satisfied; values at 5 µg/mL or higher are marked not satisfied.

| Compound | Group Label |
| --- | --- |
| COc1cc(/C=C/c2ccc(O)cc2)cc(OC)c1 [Compound 14d, (E)-3,5-dimethoxy-4′-hydroxy-stilbene] | satisfied |
| COc1ccc(C(=O)c2cc(O)cc(OC)c2)cc1 [Compound 16k, 4′,5-dimethoxy-3-hydroxybenzophenone] | not satisfied |
| COc1cc(OC)cc(C(O)c2ccc(O)cc2)c1 (stereo not shown) [Compound 15c, 4′-Hydroxy-3,5-dimethoxybenzhydrol] | satisfied |
| O=C(c1ccc(O)cc1)c1cc(O)cc(O)c1 [Compound 16g, 3,4′,5-trihydroxybenzophenone] | not satisfied |
| COc1cc(C=Cc2ccc(O)cc2)cc(OC)c1 [Compound 14c, 3,5-dimethoxy-4′-hydroxy-stilbene] | satisfied |
| COc1cc(O)cc(C(=O)c2ccc(O)cc2)c1 [Compound 16i, 3,4′-dihydroxy-5-methoxybenzophenone] | not satisfied |

* * *

tested on: KM201.2; assay: Cytotoxicity, colon KM201.2; format: cell-based, human; details: Homo sapiens, KM201.2; read-out: Colon KM201.2 GI50
Lab note: anything with GI50 below 20 µg/mL is marked 1; values at 20 µg/mL or higher are marked -1.

| Compound | Group Label |
| --- | --- |
| COc1cc(C=Cc2ccc(O)cc2)cc(OC)c1 [Compound 14c, 3,5-dimethoxy-4′-hydroxy-stilbene] | 1 |
| COc1cc(/C=C/c2ccc(O)cc2)cc(OC)c1 [Compound 14d, (E)-3,5-dimethoxy-4′-hydroxy-stilbene] | 1 |
| O=C(c1ccc(O)cc1)c1cc(O)cc(O)c1 [Compound 16g, 3,4′,5-trihydroxybenzophenone] | -1 |
| COc1cc(O)cc(C(=O)c2ccc(O)cc2)c1 [Compound 16i, 3,4′-dihydroxy-5-methoxybenzophenone] | -1 |
| COc1cc(OC)cc(C(O)c2ccc(O)cc2)c1 (stereo not shown) [Compound 15c, 4′-Hydroxy-3,5-dimethoxybenzhydrol] | 1 |
| Oc1ccc(/C=C\c2cc(O)cc(O)c2)cc1 [Compound 1b, cis-Resveratrol] | -1 |
| COc1ccc(C(=O)c2cc(O)cc(OC)c2)cc1 [Compound 16k, 4′,5-dimethoxy-3-hydroxybenzophenone] | 1 |

* * *

Each entry below lists one item and its recorded Colon KM201.2 GI50 value.
test system: KM201.2; test: Cytotoxicity, colon KM201.2; format: cell-based, human; settings: KM201.2

| Compound | Measurement Target | Measurement Unit | Colon KM201.2 GI50 |
| --- | --- | --- | --- |
| COc1ccc(C=Cc2cc(O)cc(O)c2)cc1 [Compound 14l, 3,5-dihydroxy-4′-methoxy-stilbene] | KM201.2 | µg/mL | 3.8 |
| COc1ccc(C=Cc2cc(O)cc(O)c2)cc1 [Compound 14k, 3,5-dihydroxy-4′-methoxy-stilbene] | KM201.2 | µg/mL | 17.7 |
| COc1cc(OC)cc(C(=O)c2ccc(O)cc2)c1 [Compound 16c] | KM201.2 | µg/mL | 3.6 |
| COc1cc(/C=C\c2ccccc2)cc(OC)c1OP(=O)(OCc1ccccc1)OCc1ccccc1 [Compound 14m] | KM201.2 | µg/mL | 24.7 |
| COc1ccc(C(O)c2cc(OC)cc(OC)c2)cc1 (stereo not drawn) [Compound 15a] | KM201.2 | µg/mL | 21.0 |
| COc1ccc(/C=C\c2cc(OC)c(OC)c(OC)c2)cc1O [Compound 2a, combretastatin A-4, reference compound] | KM201.2 | µg/mL | 0.34 |

* * *

tested on: Neisseria gonorrhoeae; test: Antimicrobial broth microdilution, MIC; assay type: cell-based; conditions: Neisseria gonorrhoeae; read-out: Minimum inhibitory concentration
Each entry below lists one item and its recorded MIC value.
Recorded Metric: MIC (µg/mL)

| Molecule | Measurement Target | Readout Number |
| --- | --- | --- |
| COc1cc(C=Cc2ccc(O)cc2)cc(OC)c1 [Compound 14c, 3,5-dimethoxy-4′-hydroxy-stilbene] | Neisseria gonorrhoeae | 8 |
| COc1ccc(C(=O)c2cc(OC)cc(OC)c2)cc1 [Compound 16a, 3,4′,5-trimethoxybenzophenone] | Neisseria gonorrhoeae | 32 |
| COc1cc(O)cc(C(=O)c2ccc(O)cc2)c1 [Compound 16i, 3,4′-dihydroxy-5-methoxybenzophenone] | Neisseria gonorrhoeae | 32 |

* * *

Each entry below lists one item and its recorded Inhibition of colchicine binding % Inhibition, 2 μM inhibitor value.
tested on: tubulin; test: Inhibition of [3H]colchicine binding to tubulin; settings: 2 μM inhibitor; tubulin 1.0 μM; [3H]colchicine 5.0 μM; 10 min at 37° C.
Recorded Metric: Inhibition of colchicine binding % Inhibition, 2 μM inhibitor (%)

| Molecule | Readout Number |
| --- | --- |
| COc1ccc(/C=C\c2cc(OC)c(OC)c(OC)c2)cc1O [Compound 2a, combretastatin A-4, reference compound] | 91 |
| COc1ccc(C(=O)c2cc(OC)c(OC)c(OC)c2)cc1O [Compound 2c, phenstatin, reference compound] | 73 |
| COc1ccc(C(=O)c2cc(OC)cc(OC)c2)cc1 [Compound 16a, 3,4′,5-trimethoxybenzophenone] | 47 |
| COc1ccc(C=Cc2cc(OC)cc(OC)c2)cc1 [Compound 4a, 3,4′,5-trimethoxystilbene] | 88 |

* * *

Heads up, these compounds all have MIC values measured for Micrococcus luteus.
Recorded Metric: MIC

| Compound | Measurement Target | Recorded Metric | Result |
| --- | --- | --- | --- |
| COc1ccc(C=Cc2cc(O)cc(OC)c2)cc1 [Compound 14h, 3-hydroxy-4′,5-dimethoxystilbene] | Micrococcus luteus | MIC | 16 to 64 µg/mL |
| COc1cc(C=Cc2ccc(O)cc2)cc(OC)c1 [Compound 14c, 3,5-dimethoxy-4′-hydroxy-stilbene] | Micrococcus luteus | MIC | 8 µg/mL |
| COc1ccc(C(=O)c2cc(O)cc(OC)c2)cc1 [Compound 16k, 4′,5-dimethoxy-3-hydroxybenzophenone] | Micrococcus luteus | MIC | > 64 µg/mL |
| Oc1ccc(/C=C/c2cc(O)cc(O)c2)cc1 [Compound 1, 3,4′,5-trihydroxy-trans-stilbene, reference compound] | Micrococcus luteus | MIC | > 64 µg/mL |
| COc1cc(OC)cc(C(O)c2ccc(O)cc2)c1 (stereo not shown) [Compound 15c, 4′-Hydroxy-3,5-dimethoxybenzhydrol] | Micrococcus luteus | MIC | > 64 µg/mL |
| COc1ccc(C=Cc2cc(O)cc(O)c2)cc1 [Compound 14k, 3,5-dihydroxy-4′-methoxy-stilbene] | Micrococcus luteus | MIC | > 64 µg/mL |
| COc1ccc(C(=O)c2cc(OC)cc(OC)c2)cc1 [Compound 16a, 3,4′,5-trimethoxybenzophenone] | Micrococcus luteus | MIC | > 64 µg/mL |
| COc1ccc(C=Cc2cc(OC)cc(OC)c2)cc1 [Compound 4a, 3,4′,5-trimethoxystilbene] | Micrococcus luteus | MIC | > 64 µg/mL |
| COc1cc(O)cc(C(=O)c2ccc(O)cc2)c1 [Compound 16i, 3,4′-dihydroxy-5-methoxybenzophenone] | Micrococcus luteus | MIC | > 64 µg/mL |
| O=C(c1ccc(O)cc1)c1cc(O)cc(O)c1 [Compound 16g, 3,4′,5-trihydroxybenzophenone] | Micrococcus luteus | MIC | > 64 µg/mL |

* * *

test system: NCI-H460; assay: Cytotoxicity, lung-NSC NCI-H460; assay type: cell-based, human; conditions: NCI-H460
Recorded Metric: Lung-NSC NCI-H460 GI50 (µg/mL)

| Compound | Readout Number |
| --- | --- |
| COc1cc(/C=C\c2ccccc2)cc(OC)c1OP(=O)(OCc1ccccc1)OCc1ccccc1 [Compound 14m] | 10.7 |
| COc1ccc(C=Cc2cc(OC)cc(OC)c2)cc1 [Compound 4a, 3,4′,5-trimethoxystilbene] | 0.0028 |
| COc1ccc(C=Cc2cc(O)cc(O)c2)cc1 [Compound 14l, 3,5-dihydroxy-4′-methoxy-stilbene] | 6.8 |
